- subject of test: T1, hROR2-Fc (human ROR2 Fc fusion protein) (human, UniProt Q01974 34-403, limits assumed)
- T1 construct: Given both as hROR2-Fc and as Fc-hROR2, so the order of the two parts is not certain; also called Fc-hROR2; not shown: human Fc part (captured by a mouse anti-human IgG CH2 / Fcγ mAb)
- measurement notes: SPR (Biacore X100), Fc-hROR2 captured on CM5 chip via mouse anti-human Fcγ mAb, Fab as analyte, 1:1 binding model
endpoint name: kon (M⁻¹ s⁻¹)
All answers are understood in M⁻¹ s⁻¹, so give the number only.

// below: answered binders
X3.6 (Fab, V domains shown, one of the top 12 chimeric rabbit/human anti-human ROR2 Fabs selected from the focused HCDR3 mutagenesis library) VH: QSVKESEGGLFKPTDTLTLTCTVSGFSLSSYGVTWVRQAPGSGLEWIGYINTAGNTYYASWAKSRSTITRNTNENTVTLKMTSLTAADTATYFCARDSRNSLNIWGPGTLVTVSS VL: DPMLTQTPSSTSTAVGDTVTIKCQASQSISSDLSWYQQKPGQRPKLLIYQASTLASGVPSRFKGSGYGTEYTLTISGVQREDAAIYYCLGGYADASYRTAFGGGTKLEIK    60000
X3.13 (Fab, V domains shown, one of the top 12 chimeric rabbit/human anti-human ROR2 Fabs selected from the focused HCDR3 mutagenesis library) VH: QSVKESEGGLFKPTDTLTLTCTVSGFSLSSYGVTWVRQAPGSGLEWIGYINTAGNTYYASWAKSRSTITRNTNENTVTLKMTSLTAADTATYFCARDKGWSLNIWGPGTLVTVSS VL: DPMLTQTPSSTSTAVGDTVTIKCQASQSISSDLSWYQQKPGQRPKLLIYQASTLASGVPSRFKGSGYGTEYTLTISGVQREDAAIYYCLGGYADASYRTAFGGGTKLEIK    26000
X2.23 (Fab, V domains shown, one of the top 12 chimeric rabbit/human anti-human ROR2 Fabs selected from the focused HCDR3 mutagenesis library) VH: QSVKESEGGLFKPTDTLTLTCTVSGFSLSSYGVTWVRQAPGSGLEWIGYINTAGNTYYASWAKSRSTITRNTNENTVTLKMTSLTAADTATYFCARDYTSLNIWGPGTLVTVSS VL: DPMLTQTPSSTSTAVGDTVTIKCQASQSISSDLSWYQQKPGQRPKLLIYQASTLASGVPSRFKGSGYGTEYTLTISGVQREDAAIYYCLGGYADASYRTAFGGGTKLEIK    33000

Entry X4.35 (Fab, V domains shown, one of the top 12 chimeric rabbit/human anti-human ROR2 Fabs selected from the focused HCDR3 mutagenesis library) VH: QSVKESEGGLFKPTDTLTLTCTVSGFSLSSYGVTWVRQAPGSGLEWIGYINTAGNTYYASWAKSRSTITRNTNENTVTLKMTSLTAADTATYFCARDSRRKSLNIWGPGTLVTVSS VL: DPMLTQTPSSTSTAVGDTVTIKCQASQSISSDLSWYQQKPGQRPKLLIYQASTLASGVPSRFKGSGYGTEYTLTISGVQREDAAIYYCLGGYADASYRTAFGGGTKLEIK , kon reported as 54000

Entry X4.9 (Fab, V domains shown, one of the top 12 chimeric rabbit/human anti-human ROR2 Fabs selected from the focused HCDR3 mutagenesis library) VH: QSVKESEGGLFKPTDTLTLTCTVSGFSLSSYGVTWVRQAPGSGLEWIGYINTAGNTYYASWAKSRSTITRNTNENTVTLKMTSLTAADTATYFCARDNGSTSLNIWGPGTLVTVSS VL: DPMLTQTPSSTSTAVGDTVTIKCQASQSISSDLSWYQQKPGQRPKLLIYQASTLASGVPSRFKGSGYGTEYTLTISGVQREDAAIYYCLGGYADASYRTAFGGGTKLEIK , kon reported as 33000

Entry X2.12 (Fab, V domains shown, one of the top 12 chimeric rabbit/human anti-human ROR2 Fabs selected from the focused HCDR3 mutagenesis library) VH: QSVKESEGGLFKPTDTLTLTCTVSGFSLSSYGVTWVRQAPGSGLEWIGYINTAGNTYYASWAKSRSTITRNTNENTVTLKMTSLTAADTATYFCARDTMSLNIWGPGTLVTVSS VL: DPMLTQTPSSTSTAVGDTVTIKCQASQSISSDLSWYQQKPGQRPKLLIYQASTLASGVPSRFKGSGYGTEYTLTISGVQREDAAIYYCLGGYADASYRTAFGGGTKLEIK , kon reported as 34000

Entry X4.3 (Fab, V domains shown, one of the top 12 chimeric rabbit/human anti-human ROR2 Fabs selected from the focused HCDR3 mutagenesis library) VH: QSVKESEGGLFKPTDTLTLTCTVSGFSLSSYGVTWVRQAPGSGLEWIGYINTAGNTYYASWAKSRSTITRNTNENTVTLKMTSLTAADTATYFCARDWGNWSLNIWGPGTLVTVSS VL: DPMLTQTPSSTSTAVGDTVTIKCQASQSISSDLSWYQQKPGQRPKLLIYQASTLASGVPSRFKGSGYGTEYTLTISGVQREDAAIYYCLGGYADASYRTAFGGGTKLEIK , kon reported as 30000

Each recorded value in this set is attributed to patent US20230143003A1.
